Ref: the supplement of paper PMC9732359

Assay: protein stability index of a GFP-peptide fusion (yeast GPS) (PSI 1-4); higher = more stable; sorted into four equal gates, so the index is relative within each strain
Settings: doa10∆

Seq string	protein stability index
NSISDFLGEQVNEPTKN [RPN1]	3.32
ADKPFTRLTAYQELAYR [YML031W/NDC1]	2.52
KDAEYLRNYLTPNVREE [PUP1]	3.09
STGAADGGYNAQLAKAK [SMC2]	3.31
EHEEKEKERETNKKGIK [RPN2]	3.32
GSNVLKSGKTIVITSIT [RRP43]	1.72
LSSDDLLGKESFKKIIK [YCS4]	3.25
KLSIAEERDRRRAQQGL [RPS4A]	2.11
DTYRTLMEEIESLKKEL [YIL149C/MLP2]	3.16
NSAIIQNLRKELLIYKK [YIL149C/MLP2]	3.14
TVVTVVSTAKFSGKYLK [RPL22A]	3.18

###

Assay: protein stability index of a GFP-peptide fusion (yeast GPS) (PSI 1-4); higher = more stable; sorted into four equal gates, so the index is relative within each strain
Details: ubr1∆
Label true when protein stability index >= 3; otherwise false.

Seq string	Cat
VGVGKLNKLYGGAKSRG [RPS19A]	true
GVTSLIKNLGLPSDRCS [RPP1]	false
CSPKLPVEKVQRIAKND [DLS1]	true
AESEWNGVNVQTLKGVG [RPC37]	false
RTLLTEEIEPKLEKLRN [SMC2]	true
APPLENENSNCLLSIPK [YML103C/NUP188]	false
LELPLCPYCYKKRREYF [SIR2]	false
VRLRSNVIKTGIRIISL [RPN3]	false
DRQLHEISTSKKNNLEF [RPN14]	true
EVYGINEESTNERLEIN [SIR4]	true
WKIPQNDIPQTESPLKT [SSN2]	false
LTQLLSMMSDGIEHFDI [RPO31]	false
IVQIDATPFRQWFEAHY [RPS8A]	false
RVRAESLHSNSFSLTVS [YJL039C/NUP192]	false
HDFIKGLIMLNLQPASV [NUT1]	false
LVETCLNDLVESSFIEI [BRR2]	false
LAPSKHQPITSEQKMKE [SIR4]	false
TDDYFEELRDLYQTYHV [FAS1]	true
INSDNQNIILRSTMMKF [RPN3]	false
LQKQMGIGSLTDLMSIV [RPC34]	false
YLLTQQQIWKSPNFKNY [SOH1]	false
GRHVATCSSDQHIKVFK [YGL100W/SEH1]	false
KRVHTLLTLIVREYEQP [ISW2]	true
DPPNEGDPFDYKAQADT [RPB3]	true
SEYSSEASNTPIEHQFN [PRE7]	true
PSLEKSSFTFGSTTIEK [YLR335W/NUP2]	false
TGWHVDQAIVTETKRLV [DIB1]	false
YLINGKRFKRKDNAKIS [SRP68]	false
LNYGNICEPKETLSIFT [YJL039C/NUP192]	false
ADEEEEIVDTYQEDIFV [ISW2]	false
DNEEASVKLDLQDDEDH [BRN1]	true
ITGEDEVLCSRIIEKSV [RRP45]	false
IKGSKLSLGEAFKKIDA [COR1]	false
AQGDPNLEPLIAKLVAV [NUT1]	false
KEKLIGWYHSGPKLRAS [RPN8]	false
VYVTGGRNLGRIGTIVH [RPS4A]	true
WLYVYETPNQDATYDSA [RPN6]	false
GQKNEVRILRLITTNSV [SNF2]	false
TKHPSLKTLTHKQIHTT [POP7]	false
ANGIINVKEITEKLKIS [SMC3]	false
EDFPIDTWANGETIKSN [SEM1]	true
KDVKAWAGKRLWDQDIA [COR1]	true

###

Experiment: protein stability index of a GFP-peptide fusion (yeast GPS) (PSI 1-4); higher = more stable; sorted into four equal gates, so the index is relative within each strain
Conditions: ubr1∆

Seq string	protein stability index
NSSRFSDPMLQRTATLC [YCS4]	3.02
HSNESSNETIGEIQLLF [IRR1]	2.92
RNMAEEFEYDDEPDEQG [CYT1]	3.09
EDYPMSSEIKIYYNELQ [SIR4]	3.02

###

Assay: protein stability index of a GFP-peptide fusion (yeast GPS) (PSI 1-4); higher = more stable; sorted into four equal gates, so the index is relative within each strain
Conditions: ubr1∆
# protein stability index listing for each entry below

Seq string	protein stability index
TVNGQARDLATMTYEEV [FAS1]	2.95
YRPLTPSSEVYSPIEKE [RRP6]	2.91
GASTVMKTKTINAQGEE [PRP8]	3.07
QEPELSLDQGDAEEDSQ [SMC4]	3.02

###

Test: protein stability index of a GFP-peptide fusion (yeast GPS) (PSI 1-4); higher = more stable; sorted into four equal gates, so the index is relative within each strain
Conditions: san1∆
# protein stability index listing for each entry below

Seq string	protein stability index
NLDNLQKVSQLESADKQ [POP4]	3.01
NIVNDFTPEEEAAIRRE [SKP1]	3.08
LTDKDAFETHYRRLFAK [CDC53]	2.97

###

Assay: protein stability index of a GFP-peptide fusion (yeast GPS) (PSI 1-4); higher = more stable; sorted into four equal gates, so the index is relative within each strain
Settings: doa10∆
# protein stability index listing for each entry below
Recorded endpoint: protein stability index

Seq string	Recorded endpoint	Recorded measurement
GKRQLMKAVGEYMKRHP [SEC65]	protein stability index	2.73
SDRECPKCHSRENVFFQ [RPB9]	protein stability index	2.88
VPQTEEARAEAINLMGV [RPO31]	protein stability index	3.15
RIKLATTSERVSNENKK [RRI1]	protein stability index	2.88
TRDETVSLIKKYKLISR [YML103C/NUP188]	protein stability index	2.48
QAVETVGQAGRPKKITG [RPN1]	protein stability index	1.99
KKWNDLKNKNFKCQEKD [SIR2]	protein stability index	3.46
FDVNNIDMHLIYGVEWL [YDL116W/NUP84]	protein stability index	2.12
NIMSASGGLFGNQQQQL [YGL172W/NUP49]	protein stability index	3.25

###

# protein stability index listing for each entry below
Experiment: protein stability index of a GFP-peptide fusion (yeast GPS) (PSI 1-4); higher = more stable; sorted into four equal gates, so the index is relative within each strain
Settings: pdr5∆

Seq string	protein stability index
PNETSEIAQANSRNAIR [RPL19A]	2.92
DGVTHALYPQEARLRNL [RPB2]	3.06
DELETKAEKKVELHGKR [PRP8]	2.95
APGTEAGIVPVSANTPK [SWI1]	2.94
PFDNSTEEKCKNFIESE [YJL039C/NUP192]	3.39
LYKLNDKIAVAVAGLTA [PRE9]	2.14
NSSKYYINEKESSYTEV [SMC4]	2.38
TPSFSFGAKSDENKAGA [YJL041W/NSP1]	3.19
HMAKGLYYGSYRSPRVL [COB]	1.1
NAKDKERLQLLEDVVGA [SMC3]	3.38
NNNDNDANRNANNIVNI [GRR1]	3
KDMLYSGITGECLQAYI [RET1]	2.68
HFSKDDYSPESKGFVEN [RPO21]	2.28
LFSLLELGEQKCQELVT [RRP46]	1.8
DQKTGRAKSSSHLFNEY [RPN4]	3.22
PPPPPPSNFEINAEEIV [PRP8]	3.04
RKDTVSREVLRYEEFAD [RPC40]	3.59
NSISSQPASYHSVQETN [SSN2]	2.54
QDSTSENVKIINYLLTL [RPN2]	3.1
IAIIKDTSDIIVDPTAE [RRP46]	1.92
AAIWTLCKTKMVCETDV [RPO21]	1.69
ESKGNAFKHKRALVEHI [RPL19A]	3.38
SSLNLEDTPANDSSATR [RPB8]	2.85
TDDYFEELRDLYQTYHV [FAS1]	2.69
RLFIGDQNNKKMVGLRG [SNF2]	2.87
RQQKLLLETKLRQQYEI [SWI1]	2.93
IPIAIVLKACGILSDLE [RET1]	1.43
YIDYSSKRYIPSVNDFV [RRP40]	2.83
VPVRKFKGNNGVVVLRD [RPN2]	2.88
ALIDAGISMFDYISGIS [SKI6]	1.5
VERGRVGACTDEEMTIS [RRP43]	3.08
EIGGSDLKESMVKGLLK [ECM29]	3.53
QTSVTTNFNEITNTDET [SWP82]	3.09
VTWRTFTGDFLRRVEER [FAS1]	1.78
QVEYALESISHAGTAIG [PRE9]	2.33
SVMPPNEVYSAYVVNDT [DLS1]	2.95
GSGSRLNRLPAASLGDM [RPL23A]	2.6
YIKNILEAPVKSIENPT [YLR335W/NUP2]	2.33
AAANNNIKPVEQHHINN [GAL11]	2.67
LPRCSKEEFRLMISPKD [RRI2]	1.88
ALALYVDAYRRLENKLS [SRP68]	1.42
KSGKFCSHCGCVYVPNF [SNM1]	1.79
TEGPSDKKLNLNLPLQF [SNF12]	3.31
QVLNRYTYSSTLSHLRR [RPB2]	2.83
LKMMKLIVDTHVQFRLG [PRP8]	2.21
